Give measured pIC50 for each item. Keep answers brief.
# TARGET_SYSTEM: UniProtKB O94966
# Sequence (O94966 1-1318): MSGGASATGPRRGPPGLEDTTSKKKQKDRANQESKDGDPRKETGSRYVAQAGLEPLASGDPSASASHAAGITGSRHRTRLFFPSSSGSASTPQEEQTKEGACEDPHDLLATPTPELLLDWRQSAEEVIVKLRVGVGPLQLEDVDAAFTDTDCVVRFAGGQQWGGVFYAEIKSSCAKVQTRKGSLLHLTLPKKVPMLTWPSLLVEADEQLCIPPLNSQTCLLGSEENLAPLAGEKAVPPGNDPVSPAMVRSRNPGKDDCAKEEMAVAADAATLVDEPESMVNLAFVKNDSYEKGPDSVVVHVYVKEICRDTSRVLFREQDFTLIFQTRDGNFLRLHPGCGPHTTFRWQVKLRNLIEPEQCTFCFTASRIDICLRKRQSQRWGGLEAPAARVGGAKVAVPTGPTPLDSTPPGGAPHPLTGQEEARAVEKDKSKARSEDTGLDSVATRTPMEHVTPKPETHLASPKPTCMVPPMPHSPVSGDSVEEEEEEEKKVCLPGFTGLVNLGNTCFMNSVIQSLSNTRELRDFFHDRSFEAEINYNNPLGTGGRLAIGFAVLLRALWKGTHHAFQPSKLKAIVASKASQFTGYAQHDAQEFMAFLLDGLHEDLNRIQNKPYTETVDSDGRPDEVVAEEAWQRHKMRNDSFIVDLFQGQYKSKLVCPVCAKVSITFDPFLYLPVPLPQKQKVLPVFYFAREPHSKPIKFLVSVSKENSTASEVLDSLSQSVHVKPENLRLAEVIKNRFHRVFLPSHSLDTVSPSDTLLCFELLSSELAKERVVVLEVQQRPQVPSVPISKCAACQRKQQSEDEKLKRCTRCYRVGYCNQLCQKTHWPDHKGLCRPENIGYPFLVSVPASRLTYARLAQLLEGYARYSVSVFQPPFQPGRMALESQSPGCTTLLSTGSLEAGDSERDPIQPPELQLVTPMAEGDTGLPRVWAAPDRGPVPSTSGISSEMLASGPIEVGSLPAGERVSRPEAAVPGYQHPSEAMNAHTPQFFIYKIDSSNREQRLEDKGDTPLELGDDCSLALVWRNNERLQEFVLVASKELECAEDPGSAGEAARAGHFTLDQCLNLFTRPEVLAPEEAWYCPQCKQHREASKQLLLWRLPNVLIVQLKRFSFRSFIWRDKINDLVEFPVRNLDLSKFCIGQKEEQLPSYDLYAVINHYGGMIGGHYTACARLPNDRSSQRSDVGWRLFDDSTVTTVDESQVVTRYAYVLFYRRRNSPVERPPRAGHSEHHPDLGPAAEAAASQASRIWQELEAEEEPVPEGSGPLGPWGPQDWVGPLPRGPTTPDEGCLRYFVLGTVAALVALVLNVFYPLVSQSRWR
pIC50: −log10 of the molar value.

Note pIC50 for the compound shown: C[C@H](CC1CCCCC1)C(=O)N1CCC(O)(Cn2cnc3ccc(Cl)cc3c2=O)C2(CCCC2)C1 (some centres unmarked)
> 6.30

Given the compound N#Cc1cccc(CNC(=O)N2CCC(O)(Cn3cnc(-c4ccccc4)cc3=O)C3(CCCC3)C2)c1 (centres unmarked) , write its reported pIC50.
4.30 to 5.30

Find the measured pIC50 of C[C@H](CC1CCCCC1)C(=O)N1CCC(O)(Cn2ccc3nccnc3c2=O)C2(CCCC2)C1 (some centres unmarked) and report it.
3.60 to 4.30

Identify pIC50 associated with the compound O=C(N1CC[C@@](O)(Cn2cnc(Cl)cc2=O)C2(CCCC2)C1)N1CCOC[C@H]1c1ccccc1
> 6.30

Provide only the value of recorded pIC50 for CC1(C)CCCN1C(=O)N1CCC(O)(Cn2cnc(-c3ccccc3)cc2=O)C2(CCCC2)C1 (centres unmarked)
4.30 to 5.30

Read the entry C[C@H](CC1CCCCC1)C(=O)N1CCC(O)(CN2Cc3ccccc3C2=O)C(C)(C)C1 (some centres unmarked) and write its reported pIC50.
4.30 to 5.30

Tell me pIC50 reported for COc1ccc(F)cc1-c1cc(=O)n(C[C@]2(O)CCN(C(=O)N3CCNC[C@H]3c3ccccc3)CC23CCCC3)cn1
> 6.30

Tell me measured pIC50 for O=C(N1CC[C@@](O)(Cn2cnc(-c3ccc4c(c3)OCC4)cc2=O)C2(CCCC2)C1)N1CCNC[C@H]1c1ccccc1 please.
> 6.30

Please report the measured pIC50 for COc1ccc(-c2cc(=O)n(C[C@]3(O)CCN(C(=O)N4CCNC[C@H]4c4ccccc4)CC34CCCC4)cn2)s1
> 6.30

Please look at this compound and report its pIC50: O=C(NCC(F)(F)F)N1CCC(O)(Cn2cnc(-c3ccccc3)cc2=O)C2(CCCC2)C1 (centres unmarked)
4.30 to 5.30

Note pIC50 for the compound shown: CC1CCCN1C(=O)N1CCC(O)(Cn2cnc(-c3ccccc3)cc2=O)C2(CCCC2)C1 (centres unmarked)
4.30 to 5.30

Value source: patent US20220033397A1
